molecular target: T1, M10; assay: scFv-phage ELISA
T1 construct: also called PD1 mutant M10
One threshold, 3, splits the recorded OD490 values: lower ones are Condition met, equal or higher ones are Condition not met.

- PD1-45F4 (antibody, V domains shown, scFv-phage in the screening ELISA; later whole IgG) VH: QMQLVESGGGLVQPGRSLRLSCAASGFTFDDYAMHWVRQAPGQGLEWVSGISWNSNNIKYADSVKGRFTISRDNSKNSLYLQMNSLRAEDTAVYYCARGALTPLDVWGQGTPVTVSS VL: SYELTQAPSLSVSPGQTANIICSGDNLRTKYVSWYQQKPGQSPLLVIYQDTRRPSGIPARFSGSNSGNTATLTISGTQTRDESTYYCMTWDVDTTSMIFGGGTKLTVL: Condition not met
- PD1-49A2 (antibody, V domains shown, scFv-phage in the screening ELISA; whole IgG in the other assays; also called Parent 49A2) VH: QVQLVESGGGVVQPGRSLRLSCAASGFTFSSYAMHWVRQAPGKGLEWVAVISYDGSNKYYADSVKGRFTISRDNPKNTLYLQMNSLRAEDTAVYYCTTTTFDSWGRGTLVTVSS VL: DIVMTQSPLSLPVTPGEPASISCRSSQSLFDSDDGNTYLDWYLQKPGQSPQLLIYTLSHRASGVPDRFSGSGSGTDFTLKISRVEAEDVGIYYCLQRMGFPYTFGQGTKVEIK: Condition met
- PD1-41C9 (antibody, V domains shown, scFv-phage in the screening ELISA; whole IgG in the other assays) VH: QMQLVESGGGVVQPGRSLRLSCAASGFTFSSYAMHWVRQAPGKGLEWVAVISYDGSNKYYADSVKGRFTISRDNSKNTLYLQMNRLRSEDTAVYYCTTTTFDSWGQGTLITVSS VL: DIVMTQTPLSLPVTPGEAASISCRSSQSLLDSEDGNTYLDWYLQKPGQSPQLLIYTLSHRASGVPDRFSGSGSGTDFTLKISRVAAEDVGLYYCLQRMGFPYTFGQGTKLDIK: Condition not met
- PD1-51D9 (antibody, V domains shown, scFv-phage in the screening ELISA; whole IgG in the other assays) VH: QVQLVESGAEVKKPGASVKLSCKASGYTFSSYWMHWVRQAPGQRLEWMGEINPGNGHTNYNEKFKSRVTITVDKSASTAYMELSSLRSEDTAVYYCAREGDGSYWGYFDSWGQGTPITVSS VL: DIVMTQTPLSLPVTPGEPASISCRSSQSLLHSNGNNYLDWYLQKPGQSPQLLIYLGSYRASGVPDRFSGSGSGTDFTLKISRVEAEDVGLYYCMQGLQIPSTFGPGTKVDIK: Condition met
- PD1-44B5 (antibody, V domains shown, scFv-phage in the screening ELISA; later whole IgG) VH: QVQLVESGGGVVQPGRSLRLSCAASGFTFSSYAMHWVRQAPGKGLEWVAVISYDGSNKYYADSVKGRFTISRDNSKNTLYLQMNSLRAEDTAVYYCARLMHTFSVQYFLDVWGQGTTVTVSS VL: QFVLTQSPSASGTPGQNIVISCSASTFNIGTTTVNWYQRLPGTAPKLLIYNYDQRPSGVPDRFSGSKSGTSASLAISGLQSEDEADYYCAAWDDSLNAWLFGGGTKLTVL: Condition not met
